Tested on: 653999-131-R-J2-PDC complex spheroids, growth inhibition
Test: Anticancer human tumor 653999-131-R-J2-PDC patient-derived lung adenocarcinoma cell line growth inhibition [RAS]
Conditions: curve of first compound; second compound 0.03 µM
// reported IC50 for each item listed

Reference set, count: 3
C[C@@H](NC(=O)c1ncnc(N)c1Cl)c1ncc(C(=O)Nc2cc(C(F)(F)F)c(Cl)cn2)s1 + CCn1c(-c2cccnc2C(C)OC)c2c3cc(ccc31)N1CCOC(CC(NC(=O)C(C(C)C)N(C)C(=O)C3(F)CCN(C(=O)C#CC(C)(C)N(C)C)CC3)C(=O)N3CCCC(N3)C(=O)OCC(C)(C)C2)C1 ... > 10000 nM
CC(Nc1ccc2c(c1)OCCn1cc(N3C(=O)OCC3C(F)F)nc1-2)C(N)=O (stereo not drawn) + CCn1c(-c2cc(N3CCN(C)CC3)cnc2C(C)OC)c2c3cc(ccc31)-c1csc(n1)CC(NC(=O)C1CC1C)C(=O)N1CCCC(N1)C(=O)OCC(C)(C)C2 ... < 31.6 nM
CC(C)n1nc(-c2ccc3oc(N)nc3c2)c2c(N)ncnc21 + CCn1c(-c2cccnc2C(C)OC)c2c3cc(ccc31)N1CCOC(CC(NC(=O)C(C(C)C)N(C)C(=O)C3(F)CCN(C(=O)C#CC(C)(C)N(C)C)CC3)C(=O)N3CCCC(N3)C(=O)OCC(C)(C)C2)C1 ... 22.1 nM

Lab note: measured IC50 of CCc1c2c(nc3ccc(O)cc13)-c1cc3c(c(=O)n1C2)COC(=O)[C@]3(O)CC + CCn1c(-c2cccnc2C(C)OC)c2c3cc(ccc31)N1CCOC(CC(NC(=O)C(C(C)C)N(C)C(=O)C3(F)CCN(C(=O)C#CC(C)(C)N(C)C)CC3)C(=O)N3CCCC(N3)C(=O)OCC(C)(C)C2)C1 was 10.6 nM

###

The following molecules are shown together with reported viability, T/C values.
Tested on: 653999-131-R-J2-PDC complex spheroids, growth inhibition
Assay: Anticancer human tumor 653999-131-R-J2-PDC cell line growth inhibition [RAS];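 note: spheroids exposed to the agents for seven days before the readout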
Settings: second compound 0.00316 µM; first compound 0.01 µM; stronger effect = lower value
Give just the number in %; leave the unit off.

Illustrative cases are given below, each with its answer.
CCN1CCN(Cc2ccc(Nc3ncc(F)c(-c4cc(F)c5nc(C)n(C(C)C)c5c4)n3)nc2)CC1 + C=CC(=O)N1CCN(c2nc(OCC3CCCN3C)nc3c(F)c(-c4nc(N)cc(C)c4C(F)(F)F)c(Cl)cc23)C(C)C1 ... 79.5
O=C(c1ccc(F)c(F)c1Nc1ccc(I)cc1F)N1CC(O)([C@@H]2CCCCN2)C1 + C=CC(=O)N1CCN(c2nc(OCC3CCCN3C)nc3c(F)c(-c4nc(N)cc(C)c4C(F)(F)F)c(Cl)cc23)C(C)C1 ... 83.1
C=CC(=O)Nc1cc(Nc2nccc(-c3cn(C)c4ccccc34)n2)c(OC)cc1N(C)CCN(C)C + C=CC(=O)N1CCN(c2nc(OCC3CCCN3C)nc3c(F)c(-c4nc(N)cc(C)c4C(F)(F)F)c(Cl)cc23)C(C)C1 ... 90.8
Nc1ccn(C2OC(CO)C(O)C2(F)F)c(=O)n1 (stereo not given) + C=CC(=O)N1CCN(c2nc(OCC3CCCN3C)nc3c(F)c(-c4nc(N)cc(C)c4C(F)(F)F)c(Cl)cc23)C(C)C1 ... 82.4

The molecule identified as CC(C)n1nc(-c2ccc3oc(N)nc3c2)c2c(N)ncnc21 + C=CC(=O)N1CCN(c2nc(OCC3CCCN3C)nc3c(F)c(-c4nc(N)cc(C)c4C(F)(F)F)c(Cl)cc23)C(C)C1 registered its viability, T/C at 52.5
